Biological target: MAGI3_6, Q5TCQ9
Sequence (Q5TCQ9 1014-1103): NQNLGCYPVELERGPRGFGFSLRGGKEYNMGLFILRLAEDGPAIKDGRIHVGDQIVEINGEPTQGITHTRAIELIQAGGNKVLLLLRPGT
Assay: holdup assay
Parameters: key: below the threshold = too weak to quantify, mostly under pKd 3.1 to 4
Details: plain residues with an end cap or a label only (N-terminal biotin on a linker: ttds)
measuredAttribute: pKd
Output: the number by itself.

[
  {
    "binder": "RSLEEEESQL [GRASP, Q7Z6J2]",
    "obsValue": 4.14
  },
  {
    "binder": "QSARYRDTEL [TJP2, Q9UDY2]",
    "obsValue": 4.72
  }
]

Could you now look at the following binder, please?
pKd in this record for STLTIFETAL [ABCC4, O15439] : 4.21
